Biological target: C. krusei/SIII (S. cerevisiae strain expressing C. krusei eEF2) (Pichia kudriavzevii)
Sequence (A0A2U9R6P9 1-830, change not shown): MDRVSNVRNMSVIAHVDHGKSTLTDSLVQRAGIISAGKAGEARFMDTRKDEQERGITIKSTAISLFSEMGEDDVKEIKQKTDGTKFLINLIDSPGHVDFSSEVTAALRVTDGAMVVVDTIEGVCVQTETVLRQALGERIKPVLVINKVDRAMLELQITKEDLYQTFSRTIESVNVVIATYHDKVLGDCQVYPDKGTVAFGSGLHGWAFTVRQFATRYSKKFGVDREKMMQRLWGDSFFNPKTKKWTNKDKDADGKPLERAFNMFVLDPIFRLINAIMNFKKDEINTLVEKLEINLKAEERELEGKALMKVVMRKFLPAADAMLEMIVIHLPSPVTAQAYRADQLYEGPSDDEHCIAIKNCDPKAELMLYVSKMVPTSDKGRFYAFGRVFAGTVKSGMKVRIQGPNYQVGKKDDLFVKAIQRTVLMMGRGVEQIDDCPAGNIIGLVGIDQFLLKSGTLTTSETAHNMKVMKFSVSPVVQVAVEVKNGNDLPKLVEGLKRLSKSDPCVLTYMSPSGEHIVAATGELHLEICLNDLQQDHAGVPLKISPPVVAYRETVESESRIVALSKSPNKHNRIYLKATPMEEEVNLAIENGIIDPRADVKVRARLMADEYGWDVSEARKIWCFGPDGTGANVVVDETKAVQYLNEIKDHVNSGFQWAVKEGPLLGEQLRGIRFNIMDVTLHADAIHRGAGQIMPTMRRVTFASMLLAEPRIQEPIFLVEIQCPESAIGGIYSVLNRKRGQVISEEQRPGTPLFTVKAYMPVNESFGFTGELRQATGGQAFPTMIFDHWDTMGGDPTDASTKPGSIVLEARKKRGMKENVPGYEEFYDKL
Assay: SwordIII growth inhibition assay, C. krusei/SIII strain
Type: cell-based
Conditions: SC medium, 29° C., approximately 16 hours, read-out: IC50 (μg/ml)
Text: Sordarin and its derivatives bind to the eEF2-ribosome-nucleotide complex in sensitive fungi. Through different in vitro assays using purified components from human, yeast and plant cells, it has been shown that the selective sensitivity to sordarin and its derivatives is dependent on fungal eEF2. The fungal specificity of the sordarin makes eEF2 an attractive anti-infective target. (J Biol Chem. 1998, Feb 6; 273(6):3148-51). […]
Measurement name: IC50

Task item: So what does the record say about IC50 for CO[C@H]1[C@@H](O)[C@H](O)[C@H](OC[C@@]23C[C@@H]4[C@H](C)CC[C@H]4[C@@]4(C=O)CC2C=C(C(C)C)[C@@]34C(=O)O)O[C@@H]1C ?
Reply: > 203 µM

Cited source for all entries: patent US20040242904A1
